targetDesc: EGFR del19/T790M/C797S (Homo sapiens, UniProt P00533, C797S/DEL746-750/T790M)
Sequence (P00533 with tags, fused parts or gaps DEL746-750/T790M/C797S): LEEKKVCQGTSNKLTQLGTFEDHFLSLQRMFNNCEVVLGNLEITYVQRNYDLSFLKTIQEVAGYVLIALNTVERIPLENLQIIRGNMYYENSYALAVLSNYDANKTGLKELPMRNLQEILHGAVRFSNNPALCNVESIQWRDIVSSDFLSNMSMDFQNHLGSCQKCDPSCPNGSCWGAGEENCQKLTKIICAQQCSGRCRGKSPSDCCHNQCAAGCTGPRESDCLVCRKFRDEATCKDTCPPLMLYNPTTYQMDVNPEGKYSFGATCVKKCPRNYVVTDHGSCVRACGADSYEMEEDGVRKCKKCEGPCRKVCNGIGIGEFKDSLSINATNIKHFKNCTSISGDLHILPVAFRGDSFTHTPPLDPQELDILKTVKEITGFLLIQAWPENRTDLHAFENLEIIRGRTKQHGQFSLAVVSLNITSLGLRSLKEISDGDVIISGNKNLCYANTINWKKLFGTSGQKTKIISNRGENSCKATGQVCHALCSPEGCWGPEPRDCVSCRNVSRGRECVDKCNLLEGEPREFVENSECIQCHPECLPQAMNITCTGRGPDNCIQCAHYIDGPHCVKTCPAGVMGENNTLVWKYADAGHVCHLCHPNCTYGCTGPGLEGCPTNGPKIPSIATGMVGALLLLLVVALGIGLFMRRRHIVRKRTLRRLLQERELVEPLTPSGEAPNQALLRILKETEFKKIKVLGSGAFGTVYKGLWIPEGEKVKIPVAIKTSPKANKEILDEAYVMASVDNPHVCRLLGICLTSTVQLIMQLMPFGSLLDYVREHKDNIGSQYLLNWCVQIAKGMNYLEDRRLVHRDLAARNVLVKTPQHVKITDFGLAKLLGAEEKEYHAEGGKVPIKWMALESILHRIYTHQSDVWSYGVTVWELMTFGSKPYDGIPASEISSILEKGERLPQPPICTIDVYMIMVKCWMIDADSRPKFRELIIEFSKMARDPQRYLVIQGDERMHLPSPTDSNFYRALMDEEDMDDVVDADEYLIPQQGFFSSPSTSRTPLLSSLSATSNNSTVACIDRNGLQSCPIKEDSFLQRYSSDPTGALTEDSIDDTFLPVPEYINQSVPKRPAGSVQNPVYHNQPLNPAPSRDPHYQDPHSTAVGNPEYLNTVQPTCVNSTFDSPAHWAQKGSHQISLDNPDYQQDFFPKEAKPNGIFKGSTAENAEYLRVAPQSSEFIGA
testProtocol: Biochemical EGFR kinase assay (Lance Ultra TR-FRET), triple mutant del19/T790M/C797S
runConditions: IC50 del19/T790M/C797S (nM) 100 μM ATP, 100 μM ATP
recordedEndpoint: IC50 (nM)

> print(dat)
                                    compound  uom  valuereported
 1  CN(C)CCOc1cnc(-c2cnc(Nc3ccnc(-c4cnn(S(=O)(=O)C5CC5)c4)n3)cc2N[C@H]2CC[C@@H](C(C)(C)O)CC2)cn1 [Example 117]   nM            0.4
 2  CC(C)(O)[C@H]1CC[C@@H](Nc2cc(Nc3ccnc(-c4cnn(S(=O)(=O)C5CC5)c4)n3)ncc2-c2ccc(N3CCCC3)cn2)CC1 [Example 82]   nM           10.5
 3  COC1CN(c2ccc(-c3cnc(Nc4ccnc(-c5cnn(S(=O)(=O)C6CC6)c5)n4)cc3N[C@H]3CC[C@@](C)(O)CC3)nc2)C1 [Example 90]   nM            0.4
 4  CC(C)(O)[C@H]1CC[C@@H](Nc2cc(Nc3ccnc(-c4cnn(S(=O)(=O)C5CC5)c4)n3)ncc2-c2cc(CN3CCC(F)(F)CC3)ccn2)CC1 [Example 114]   nM           11.2
 5  O=S(=O)(C1CC1)n1cc(-c2nccc(Nc3cc(N[C@H]4CC[C@@H](CO)CC4)c(-c4cc(N5CCC(F)(F)CC5)ccn4)cn3)n2)cn1 [Example 100]   nM            8.1
 6  CN1CCN(c2ccc(-c3cnc(Nc4ccnc(-c5cnn(S(=O)(=O)C6CC6)c5)n4)cc3N[C@H]3CC[C@@H](C(C)(C)O)CC3)nc2)CC1 [Example 84]   nM            0.7
 7  CN1CCN(Cc2ccc(-c3cnc(Nc4ccnc(-c5cnn(S(=O)(=O)C6CC6)c5)n4)cc3N[C@H]3CC[C@@](C)(O)CC3)nc2)CC1 [Example 9]   nM            0.1
 8  C[C@]1(O)CC[C@@H](Nc2cc(Nc3ccnc(-c4cnn(S(=O)(=O)C5CC5)c4)n3)ncc2-c2cc(CN3CCOCC3)ccn2)CC1 [Example 61]   nM            0.2
 9  CN(C)C[C@H]1CC[C@@H](Nc2cc(Nc3ccnc(-c4cnn(S(=O)(=O)C5CC5)c4)n3)ncc2-c2ccc(C(C)(C)O)nn2)CC1 [Example 89]   nM            0.1
10  O=S(=O)(C1CC1)n1cc(-c2nccc(Nc3cc(N[C@H]4CC[C@@H](CO)CC4)c(-c4ccc(N5CCCC5)cn4)cn3)n2)cn1 [Example 81]   nM            3.1
11  C[C@]1(O)CC[C@@H](Nc2cc(Nc3ccnc(-c4cnn(S(=O)(=O)C5CC5)c4)n3)ncc2-c2cc(N3CCOCC3)ccn2)CC1 [Example 48]   nM            0.6
12  O=S(=O)(C1CC1)n1cc(-c2nccc(Nc3cc(N[C@H]4CC[C@@H](CO)CC4)c(-c4cc(CN5CCC(F)(F)CC5)ccn4)cn3)n2)cn1 [Example 113]   nM            5.3

src = patent US12258328B2
